Listed below: IC50 values for each entry.
target: T1, huNav1.7α + β1-β2-β3 (human, UniProt Q15858 1-1988; A5A6L6 19-218; O60939 30-215; Q2KI11 23-215); assay: competition FACS, HEK FlpIn cells, vs EC30 of CMYC3-F0103265B04
T1 construct: Cell line (CHO FlpIn, HEK FlpIn, transient HEK293T) is named under assay; also called huNav1.7-beta1-beta2-beta3; human Nav1.7α with Navβ1, Navβ2 and Navβ3

- BINDER: "F0103362B08 (VHH, entry includes the FLAG-HIS6 tag; also called F0103362B08 (parental)-FLAG-HIS6) VHH: EVQLVESGGGLVQAGGSLRLSCAASVRPFSTSAMGWFRQAPEKEREAVAGILWNGIVTYYADSVKGRFTISRDNAKNEVYLQMNKLKPEDTAVYYCALDRDYGGRSFSAYEYEYWGQGTLVTVSS"
  IC50 (nM): 150
- BINDER: "F0103275B05 (VHH, entry includes the FLAG-HIS6 tag; also called F0103275B05 (parental)-FLAG-HIS6) VHH: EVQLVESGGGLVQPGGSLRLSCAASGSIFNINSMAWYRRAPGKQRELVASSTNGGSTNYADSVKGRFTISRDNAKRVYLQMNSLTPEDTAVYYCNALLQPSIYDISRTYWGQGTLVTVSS"
  IC50 (nM): 98
